# protocol.description: MTT cellular cytotoxicity assay
# Assay type: cell-based
# test.settings: hamster, BHK-21 cells
reported.metric: CC50 at 24 h

Exercise: Please give the measured CC50 at 24 h for this molecule: Cn1c(=O)c(C(=O)CCN2CCOCC2)c(O)c2ccccc21 [QVIR]
Key: > 200 µM
